Below, each entry is listed alongside its reported Trimeric HA Binding: RLU.
Test System: recombinant homotrimeric HA A/South Carolina/1/18 H1N1 (Influenza A virus A/South Carolina/1/18 (H1N1))
Method Notes: protein microarray, purified IgG, trimeric HA
Condition Parameters: remark: other sources report otherwise
Give the number; RLU is assumed, so skip it.

TCN-526 (5084_C17) (antibody, V domains shown) VH: EVLMVESGGGLVQPGGSVRLSCVASGFSFSSHWMTWVRQAPGKGLEWVANIEDDGGDKYYVDSVKGRFIISRDNAKNSVYLQMNSLRAEDTAVYFCARGSGSSDRSDYDPHYYYYLDVWGKGATVTVSS VL: DIQLTQSPSSLSASVGDRVTITCRASQSISRYLNWYQQKPGKAPKLLLFAASTLLDGVPSRFSGSGSGTDFTLTISSLQPEDFATYYCQRNHSPSWTFGQGTRVEIK: 87
TCN-550 (5096_F06) (antibody, V domains shown) VH: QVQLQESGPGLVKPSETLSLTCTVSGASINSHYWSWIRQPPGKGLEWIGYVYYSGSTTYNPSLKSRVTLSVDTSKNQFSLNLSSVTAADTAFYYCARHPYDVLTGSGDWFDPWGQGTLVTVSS VL: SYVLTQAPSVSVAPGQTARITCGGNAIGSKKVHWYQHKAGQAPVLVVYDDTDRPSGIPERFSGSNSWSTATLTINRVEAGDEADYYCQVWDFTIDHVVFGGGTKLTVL: 104

Given the binder TCN-528 (5087_P17) (antibody, V domains shown) VH: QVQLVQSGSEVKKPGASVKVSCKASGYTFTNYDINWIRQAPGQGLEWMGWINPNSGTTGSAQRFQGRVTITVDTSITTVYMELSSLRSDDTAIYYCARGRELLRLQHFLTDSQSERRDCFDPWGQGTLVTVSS VL: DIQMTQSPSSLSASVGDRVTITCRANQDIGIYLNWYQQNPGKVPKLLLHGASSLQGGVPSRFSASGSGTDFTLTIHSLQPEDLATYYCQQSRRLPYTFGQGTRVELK , what is its reported Trimeric HA Binding: RLU?
16900
